Target: off-target receptors, ion channels, and transporters (Homo sapiens, UniProt O43318)
Sequence (O43318 1-303): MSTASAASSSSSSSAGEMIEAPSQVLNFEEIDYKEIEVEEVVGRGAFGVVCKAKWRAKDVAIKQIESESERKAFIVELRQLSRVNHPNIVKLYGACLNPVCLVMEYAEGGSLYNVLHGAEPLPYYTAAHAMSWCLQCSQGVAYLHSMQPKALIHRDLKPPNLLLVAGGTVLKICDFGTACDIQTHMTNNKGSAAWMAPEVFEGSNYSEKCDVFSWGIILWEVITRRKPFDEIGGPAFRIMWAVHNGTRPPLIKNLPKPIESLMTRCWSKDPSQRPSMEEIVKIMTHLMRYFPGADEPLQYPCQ
Sequence (Q15750 437-504 partner): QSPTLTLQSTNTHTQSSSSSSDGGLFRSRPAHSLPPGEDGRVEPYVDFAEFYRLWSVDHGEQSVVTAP
QUANTITY: IC50

[
  {
    "CHEMICAL STRUCTURE": "Cc1c(Cl)c2c(Cl)c(C)c1-c1c(-c3ccc(F)cc3)sc3ncnc(c13)O[C@@H](C(=O)O)Cc1cc(ccc1OCc1ccnc(-c3ccc(OC[C@H]4COCCO4)cc3)n1)OC[C@@H](CN1CCN(C)CC1)O2",
    "MEASURED TARGET": "off-target receptors, ion channels, and transporters (Homo sapiens, UniProt O43318)",
    "QUANTITY": "IC50",
    "OBS VALUE": "> 10 µM"
  }
]
